TEST_DETAILS: solubility
Format: physicochemical
CONDITION_PARAMETERS: in words
EXPERIMENTAL_READOUT: solubility (soluble in)

- COMPOUND: "COC(=O)C(C)n1nc(-c2ccc(OC)cc2)c(-c2ccc(OC)cc2)nc1=O (stereo not drawn)"
  REPORTED_VALUE: "Soluble in hot alcohols"
- COMPOUND: "CCOC(=O)C(C)n1nc(-c2ccc(O)cc2)c(-c2ccc(O)cc2)nc1=O (stereo not drawn)"
  REPORTED_VALUE: "Soluble in hot alcohols"

Source of measurements: patent US4677105A
